Values from PubChem BioAssay (NCI)

Test system: NCI-H226 lung
measurement description: NCI-60 one-dose screen, 48 h (100 = growth as untreated, 0 = no growth, -100 = all killed)
assay conditions: 10 µM
About 83,000 compounds went through this panel and 20% of them were active in at least one assay; those are over-represented in the sample as a whole.
Recorded growth for the following compounds
Form entry: value (%) — number only.

Check out these entries, answers already filled in.
* CCOc1ccccc1/C=N/Nc1nc2ccccc2o1 | 103
* Cc1cc(Cc2cc(C)c(N)cc2N)c(N)cc1N | 81.7
* Nc1ccc(CC(=O)O)c(N)c1 | 92

Switching to the query record.
Inquiry: What growth appears in the records for this compound with NCI-H226 lung? `C=CCOC(=O)C(=O)OCC=C`
Reply text: 99.7

----------
Recorded growth for the following compounds
Tested on: SN12C renal
measurement description: NCI-60 one-dose screen, 48 h (100 = growth as untreated, 0 = no growth, -100 = all killed)
assay conditions: 10 µM
The panel holds about 83,000 compounds, 20% with a hit somewhere; the sample as a whole holds those more often.
Form entry: value (%) — number only.

• CCCCC1C(=O)N(c2ccccc2)N(c2ccccc2)C1=O = 96.2
• NCC(=O)CCC(=O)O = 105
• COc1ccc(-c2cc3c(nn2)-c2ccccc2C3=O)cc1 = 72.7
• CC(C)(C)c1cc(O)c(C(C)(C)C)cc1O = 87.4
• Cc1ccc(N)cc1[N+](=O)[O-] = 109
• CC1(C)N=C(N)N=C(N)N1c1cccc(Br)c1 = 37.3
• Cc1cc(Cc2cc(C)c(N)cc2N)c(N)cc1N = 88.3
• CC(=O)c1ccc2c(ccc3ccccc32)c1 = 102

Inquiry: I am curious: what growth value has been reported for `CC1=CC(=O)c2ccccc2C1=O` ?
Reply text: 99.3

Inquiry: I am curious: what growth value has been reported for `O=[N+]([O-])c1ccccc1N=Nc1ccc(O)cc1O` ?
Reply text: 107

Inquiry: I am curious: what growth value has been reported for `c1ccc2c(c1)Sc1ccccc1S2` ?
Reply text: 93.2

Inquiry: I am curious: what growth value has been reported for `C/C(=N/NC(N)=O)c1ccco1` ?
Reply text: 110

----------
System: OVCAR-5 ovarian
measurement description: NCI-60 one-dose screen, 48 h (100 = growth as untreated, 0 = no growth, -100 = all killed)
assay conditions: 10 µM
Compounds without any hit were thinned out: in the full panel of roughly 83,000, 20% have a hit. The source made the active and inactive calls. How the source made its calls: active means growth percent below 10; inactive means the rest.
property measured: growth

* COc1ncnc2c1cnn2C | 103% (inactive)
* CC(C)=CC(=O)OC(=O)C=C(C)C | 104% (inactive)
* Nc1nc2c(c(-c3nc(N)nc4c3CCc3ccccc3-4)n1)CCc1ccccc1-2 | 113% (inactive)
* COc1ccccc1N1CCN(C(=S)Nc2ccccc2)CC1 | 107% (inactive)
* CCC(C#N)(CC)c1ccccc1 | 104% (inactive)
* CCOC(=O)c1cc(/C=C/c2ccc(Cl)cc2Cl)on1 | 58.8% (inactive)
* CN(C)/N=C/c1ccccc1O | 89.9% (inactive)
* CC1(C)Nc2cccc3c(N=Nc4ccc(N=Nc5ccccc5)c5ccccc45)ccc(c23)N1 | 94.9% (inactive)

Inquiry: I am curious: what growth value has been reported for `CCOC(=O)/C(C#N)=C/c1cccc(C)c1` ?
Reply text: 96.1% (inactive)

Inquiry: I am curious: what growth value has been reported for `O=C(N/N=C/c1ccccc1O)Nc1nn[nH]n1` ?
Reply text: 92.3% (inactive)

Inquiry: I am curious: what growth value has been reported for `CN(C)c1nc2c([nH]1)c(=O)n(C)c(=O)n2C` ?
Reply text: 104% (inactive)

Inquiry: I am curious: what growth value has been reported for `O=C(/C(=N/O)c1ccccc1)c1ccccc1` ?
Reply text: 111% (inactive)

----------
Recorded growth for the following compounds
System: CAKI-1 renal
measurement description: NCI-60 one-dose screen, 48 h (100 = growth as untreated, 0 = no growth, -100 = all killed)
assay conditions: 10 µM
Experimental: Growth inhibition of the CAKI-1 human tumor cell line is measured as a screen for anti-cancer activity. Cells are grown in 96 well plates and exposed to the test compound for 48 hours. Compounds are tested at a single concentration, which is 10^-5 M for most compounds. The reported endpoint is percent growth (GI% or GIPRCNT), where numbers from 0 - 100% represent growth inhibition, and numbers from -100% - 0 represent cell death. For example, a value of 40 represents 60% growth inhibition. […]
This is part of a sample that, as a whole, favours compounds with a hit. Of some 83,000 tested, about 20% had one in any assay.
Form entry: value (%) — number only.

* Cc1ccc(C(=O)NC2c3ccccc3Oc3ccccc32)cc1 | 64.9
* NC(=O)NC(=O)c1ccc(Cl)cc1 | 94.1
* CC1(C)Nc2cccc3c(N=Nc4ccc(N=Nc5ccccc5)c5ccccc45)ccc(c23)N1 | 88.1

Inquiry: I am curious: what growth value has been reported for `CCCCCCCCCCCCCC(=O)Oc1ccc[nH]c1=O` ?
Reply text: 84.5

Inquiry: I am curious: what growth value has been reported for `C=CCNc1ccccc1` ?
Reply text: 114

Inquiry: I am curious: what growth value has been reported for CCCCC1(CC)COC(CCC)OC1 (configuration not stated) ?
Reply text: 84.2

Inquiry: I am curious: what growth value has been reported for COc1ccc(Oc2c(I)cc(CC(NC(C)=O)C(=O)O)cc2I)cc1 (configuration not stated) ?
Reply text: 57.4

----------
Tested on: HT29 colon
measurement description: NCI-60 one-dose screen, 48 h
assay conditions: 10 µM
About 83,000 compounds went through this panel and 20% of them were active in at least one assay; those are over-represented in the sample as a whole. Activity calls are given as the source filed them. The calls were made as follows: active = growth percent below 10; inactive = the rest.
Allowed answers: active, inactive

Inquiry: Which outcome did this test record for the compound `OCCN(CCO)C(=S)S` ?
Reply text: inactive

----------
Tested on: HT29 colon
measurement description: NCI-60 one-dose screen, 48 h (100 = growth as untreated, 0 = no growth, -100 = all killed)
assay conditions: 10 µM
Compounds without any hit were thinned out: in the full panel of roughly 83,000, 20% have a hit.
Recorded growth for the following molecules
Form entry: value (%) — number only.

* Nc1ccccc1SC(CC(=O)c1ccccc1)c1c(Cl)cccc1Cl (stereo unspecified) | 42.5
* N#Cc1ccc(OC(=O)Nc2ccc(Cl)c(Cl)c2)cc1 | 63.4
* CC(C)(N)COS(=O)(=O)O | 113
* CC(=O)c1ccc2c(ccc3ccccc32)c1 | 95.6

Inquiry: I am curious: what growth value has been reported for `O=[N+]([O-])c1cccc2nsnc12` ?
Reply text: 105

Inquiry: I am curious: what growth value has been reported for CC(CN1CCCCC1)NC(=O)c1scnc1-c1ccccc1 (stereo unspecified) ?
Reply text: 94.2

Inquiry: I am curious: what growth value has been reported for `O=C(NC1CCCCC1)OCc1c(COC(=O)NC2CCCCC2)c(-c2ccc(Cl)c(Cl)c2)n2c1CCC2` ?
Reply text: 26.7

Inquiry: I am curious: what growth value has been reported for CCOC(=O)C1OC1c1ccccc1 (stereo unspecified) ?
Reply text: 112

Inquiry: I am curious: what growth value has been reported for `Nc1ccccc1C(=O)Nc1ccc(Cl)cc1Cl` ?
Reply text: 93.2

Inquiry: I am curious: what growth value has been reported for COc1cc2c(cc1O)CC[C@@H]1C2CC[C@@]2(C)C1CC[C@@H]2O (stereo partly specified) ?
Reply text: 22.4

Inquiry: I am curious: what growth value has been reported for C/C=C/CC(C)C(O)C1C(=O)NC(CC)C(=O)N(C)CC(=O)N(C)C(CC(C)C)C(=O)NC(C(C)C)C(=O)N(C)C(CC(C)C)C(=O)NC(C)C(=O)NC(C)C(=O)N(C)C(CC(C)C)C(=O)N(C)C(CC(C)C)C(=O)N(C)C(C(C)C)C(=O)N1C (stereo unspecified) ?
Reply text: -37.2

----------
Tested on: M14 melanoma
measurement description: NCI-60 one-dose screen, 48 h (100 = growth as untreated, 0 = no growth, -100 = all killed)
assay conditions: 10 µM
Compounds without any hit were thinned out: in the full panel of roughly 83,000, 20% have a hit.
property measured: growth (%)
Form entry: value (%) — number only.

Check out these entries, answers already filled in.
* CCOc1ccc2[nH]c(=S)sc2c1 | 99
* OCCN(CCO)C(=S)S | 108
* Cc1cc2nc(CC(=O)c3cccc([N+](=O)[O-])c3)c(=O)[nH]c2cc1C | 81.4
* C#CC(C)(O)c1ccc(Cl)cc1 (stereo unspecified) | 98.8
* COc1ccccc1NC(=O)c1cc2cc(Br)ccc2cc1O | 19.6

Inquiry: I am curious: what growth value has been reported for `C[N+](C)(C)C(=O)c1ccccc1` ?
Reply text: 95.2

Inquiry: I am curious: what growth value has been reported for `Cc1cc(OCCO)cc(C)c1Cl` ?
Reply text: 112

Inquiry: I am curious: what growth value has been reported for `CC(=O)OCCO` ?
Reply text: 105

Inquiry: I am curious: what growth value has been reported for `O=[N+]([O-])c1ccc(Sc2ccncn2)c([N+](=O)[O-])c1` ?
Reply text: 8.79

Inquiry: I am curious: what growth value has been reported for `CCCNc1ccc(C2=NCCCN2)cc1` ?
Reply text: 96.1

Inquiry: I am curious: what growth value has been reported for `COc1ccccc1N=Nc1c(O)ccc2cc(S(=O)(=O)O)ccc12` ?
Reply text: 99.7
